tested on: K4 kissing-loop RNA reporter; assay: apparent KD of K4 kissing-loop reporter; higher = weaker reporter binding; conditions: Eterna round: R107; input ligand: FMN 200 uM;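 note: bound reporter read as fluorescence of individual clusters on recovered sequencing chips by microscopy, with normalized cluster intensities fitted with a binding model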
endpointLabel: apparent KD of K4 kissing-loop reporter
Number first, unit second.

sequence: GGAUCCACCAGUGAUGUUGGAGAAAACUUCAAGGAUAUGACGAAAGUCAGAAGGUGAUAGACUGGACAAAGUCCGGUCGGAUCCA [FmnA 19 U29+A57]
reportedResult: 552 nM
//
sequence: AAGUGAUGUUGUAGUGAUGUUGUGAUGUUGCAGGAUAUAUAGUGAUGUAGAAGGGUAUGUGCAGUUUUUUUUUUUGAGUGUUGAU [dpdmullin]
reportedResult: 76.6 nM
//
sequence: CCAGUUUGAGUGAUGUUCAGGCAUUGGUACGAGGAUAUCGAGGAGUUGAGAAGGCGUACUACUCAACUAUGUAUGAAUACAUACC [FMN A Ex t2]
reportedResult: 224 nM

Could you now look at the following sequence, please?
# apparent KD of K4 kissing-loop reporter lookup, item UUAUAAUUCAGUGAUGUUGAAAAUAUAACAGAGGAUAUGCGUUUAAGCAGAAGGCUGAAAUACUAUACUUUAAUCUAUUAAAUUU [JR_SSFMNA_Sub019]
232 nM
